Numbers sourced from the supplement of paper PMC10567573.

B1: PLK2 (parent)
chain: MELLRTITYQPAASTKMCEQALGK

# Variants of: B1
# experimental.protocol: protein stability index of a GFP-peptide fusion (GPS, HEK-293T) (PSI 1-6); higher = more stable;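 note: lentivirally expressed fusions sorted by FACS into six bins by GFP to DsRed ratio, PSI derived from sequencing read proportions per bin multiplied by bin number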
# protocol.conditions: c terminus: a fixed tail appended
Please map values of protein stability index to classes as shown: low end = under 2, middle = from 2 up to 3, high end = 3 and over

Reference set (5 entries):
INSERT INTO measurements (sequence_content, assigned_category) VALUES
  ('MELLRTITYQPAASTKMFEQALGK [C18F]', 'middle'),
  ('MELLRTITYQPAASTKFCEQALGK [M17F]', 'low end'),
  ('MELDRTITYQPAASTKMCEQALGK [L4D]', 'high end'),
  ('MELLRTIEYQPAASTKMCEQALGK [T8E]', 'low end'),
  ('MELLRTITYQPAASTKMREQALGK [C18R]', 'middle');

## Task Lab note: sort MELLRTITYQPAASTKMCEQALAK [G23A] into the matching protein stability index band.
## Result middle

## Task Please classify: MELLRTITYQPAMSTKMCEQALGK [A13M]
## Result middle

## Task Class (by measured protein stability index) for MELLRTITYQPAASTKNCEQALGK [M17N]
## Result middle

## Task For this variant, which bin applies? MELLRTITYQPAASTKMCEQATGK [L22T]
## Result middle

## Task Lab note: sort MELLRFITYQPAASTKMCEQALGK [T6F] into the matching protein stability index band.
## Result low end

## Task // bin(item) where item = MELLRTITYQPAAATKMCEQALGK [S14A]
## Result high end

## Task Could you tell me which band MELLYTITYQPAASTKMCEQALGK [R5Y] belongs to?
## Result low end

## Task Band for the recorded protein stability index of MELLRTMTYQPAASTKMCEQALGK [I7M] ?
## Result middle
